# credit: paper PMC6522510

Recorded EC50, one value per entry.
System: U937
PROCEDURE_SUMMARY: Secondary dose-response HTS, Cell Titer Glo
Type: cell-based, human
CONDITION_SUMMARY: Homo sapiens, U-937; secondary high-throughput screen; U937; read-out: average effective concentration, U937
Give the value, in units of µM, as a plain number.

Sample answers from the record:
- COMPOUND: "COC[C@H](NC(=O)c1cnc(C)s1)C(=O)N[C@@H](COC)C(=O)N[C@@H](Cc1ccccc1)C(=O)[C@@]1(C)CO1 [Oprozomib, reference compound]"
  EC50 [µM]: 0.011
- COMPOUND: "CC1(COc2ccc3c(c2)ncn3-c2ccc3cccc(N4CCC(N)CC4)c3n2)COC1 [CRENOLANIB]"
  EC50 [µM]: 5
- COMPOUND: "CC[C@@H]1C(=O)N(C)c2cnc(Nc3ccc(C(=O)N[C@H]4CC[C@H](N5CCN(CC6CC6)CC5)CC4)cc3OC)nc2N1C(C)C [Volasertib, reference compound]"
  EC50 [µM]: 0.001

Data request, read-out EC50, for C[C@@H]1O[C@@H](O[C@H]2C[C@@H](O)[C@]3(CO)[C@H]4[C@H](O)C[C@]5(C)[C@@H](C6=CC(=O)OC6)CC[C@]5(O)[C@@H]4CC[C@]3(O)C2)[C@H](O)[C@H](O)[C@H]1O [Ouabain, reference compound]
0.041

----------
Test system: U937
Parameters: species or system AML cell lines (8); Primary HTS, single concentration about 10 uM, Cell Titer Glo viability; log10 luminescence, per cent inhibition relative to cycloheximide control
CONDITION_SUMMARY: 72 h, relative to cycloheximide control, log10 luminescence; inhibitor
REPORTED_ENDPOINT: U937 %inh (%)
Only the number, expressed in %, is required.

- COMPOUND: "C[C@]12CCC(=O)C=C1C=C[C@@H]1[C@@H]2CC[C@@]2(C)[C@H]1CC[C@@]21CCC(=O)O1"
  U937 %inh, %: 3.254

Recorded U937 %inh for COc1ccc(Nc2ncc(-c3ccccc3)o2)cc1OC , please?
-1.171

Entry COc1cc2ncn(-c3cc(OCc4ccccc4C(F)(F)F)c(C(=O)N(C)C)s3)c2cc1OC has what U937 %inh?
7.074

Name the reported U937 %inh value associated with the compound Clc1ccc(-c2nc3sccn3c2/C=N/OCc2ccc(Cl)c(Cl)c2)cc1
-0.9685

Bench note: what U937 %inh did COc1cc(C)c2c(Oc3cccc(C(F)(F)F)c3)c(OC)cc(NC(C)CCCN)c2n1 (stereo not shown) show?
46.41

So what's the measured U937 %inh for this one? Nc1ncnc2occ(-c3ccc(NC(=O)Nc4cccc(C(F)(F)F)c4)cc3)c12
26.65

For the compound Fc1ccc(-c2ncn(CCCN3CCOCC3)c2-c2ccncc2)cc1 [SJ000573144-1, LDD-19018-277B] , what U937 %inh is on record?
-0.4661

Return reported U937 %inh; argument: Nc1c(C(=O)c2cccc(OC[C@H](O)CO)c2)cnn1-c1ccc(F)cc1
0.3347

Any idea what its U937 %inh is? The compound is CN(C)C(=O)Oc1ccc[n+](C)c1 [SJ000286222-6, PYRIDOSTIGMINE BROMIDE]
1.718

Endpoint output: U937 %inh of CCc1nccc2c1nc(-c1nonc1N)n2CC . Value?
6.241

Given the compound COc1ccc(-c2oc3ncnc(N)c3c2-c2ccc(NC(=O)Nc3cc(C(F)(F)F)ccc3F)cc2)cc1 , what is its reported U937 %inh?
-2.62

Which U937 %inh reading was recorded for the compound C=CC1=C(C(=O)O)N2C(=O)[C@@H](NC(=O)/C(=N\O)c3csc(N)n3)[C@H]2SC1 ?
3.234

Which U937 %inh value is on record for COc1cc2ncn(-c3cc(OCc4ccccc4S(C)(=O)=O)c(C#N)s3)c2cc1OC ?
1.496

Requested read-out: U937 %inh. Entry: COC[C@H](N=C1NC(=O)/C(=C/c2ccc3ncccc3c2)S1)c1ccccc1
4.246

May I ask what U937 %inh has been recorded for Oc1c(Cl)cc(Cl)c2cccnc12 ?
23.85

For the compound shown here, COc1ccccc1Nc1ncc(-c2ccccc2)o1 , give the reported U937 %inh.
-2.759

----------
Test system: MV4-11
PROCEDURE_SUMMARY: Secondary dose-response HTS, Cell Titer Glo
Type: cell-based, human
CONDITION_SUMMARY: Homo sapiens; secondary high-throughput screen; MV4-11; read-out: average effective concentration, MV4-11
Numbered stars: 1 amine (or outer) side, 2 acyl side, 3 side chain; on linkers, the order of the positions; unused ones are H or OH. Bridge positions count the residues as written; N and C are the ends. Square brackets hold non-standard residues; d marks the D form. Peptide text beside a SMILES is read from it. I, II: the chains in the order shown. Actinocin(9to1) = Cc1c2oc3c(C)ccc(C(=O)[*:1])c3nc-2c(C(=O)[*:2])c(N)c1=O; NMeV = CN[C@H](C(=O)O)C(C)C; Sar = CNCC(=O)O
Quick reference: log10(EC50) of the listed items.
All values: base-10 log of EC50 in µM.

- MOLECULE: "CC(C)c1cc(C(=O)N2Cc3ccc(CN4CCN(C)CC4)cc3C2)c(O)cc1O"
  log10(EC50): -2.10
- MOLECULE: "Cc1cc(C2CCCCC2)n(O)c(=O)c1"
  log10(EC50): 0.72
- MOLECULE: "Nc1cc(C(F)(F)F)c(-c2cc(N3CCOCC3)nc(N3CCOCC3)n2)cn1"
  log10(EC50): 0.26
- MOLECULE: "C[C@@H]1C[C@H]2O[C@@H]2/C=C\\C=C\\C(=O)Cc2c(Cl)c(O)cc(O)c2C(=O)O1"
  log10(EC50): -1.68

Need log10(EC50) of Cc1c2oc3c(C)ccc(C(=O)N[C@@H]4C(=O)N[C@H](C(C)C)C(=O)N5CCC[C@H]5C(=O)N(C)CC(=O)N(C)[C@@H](C(C)C)C(=O)O[C@@H]4C)c3nc-2c(C(=O)N[C@@H]2C(=O)N[C@H](C(C)C)C(=O)N3CCC[C@H]3C(=O)N(C)CC(=O)N(C)[C@@H](C(C)C)C(=O)O[C@@H]2C)c(N)c1=O [Dactinomycin, reference compound] (I: T[dV]P[Sar][NMeV] / II: T[dV]P[Sar][NMeV]; ester I:1-I:C, II:1-II:C; linker I:N-II:N via Actinocin(9to1)) , thanks.
-1.37

For the molecule shown here, COc1cc(NCc2ccc3nc(N)nc(N)c3c2C)cc(OC)c1OC [TRIMETREXATE] , give the reported log10(EC50).
0.26

----------
System: M07e
Design: species or system AML cell lines (8); Primary HTS, single concentration about 10 uM, Cell Titer Glo viability; log10 luminescence, per cent inhibition relative to cycloheximide control
CONDITION_SUMMARY: 72 h, relative to cycloheximide control, log10 luminescence; inhibitor
# key: entry, value: M07e %inh
// units = %; emit number, no label

Consider the reported M07e %inh for these molecules:
- MOLECULE: "Fc1ccc(-c2c(-c3ccncc3)n(CCN3CCOCC3)c3cccnc23)cc1"
  MEASUREMENT_TARGET: "M07e"
  M07e %inh [%]: 4.186
- MOLECULE: "CCn1c(-c2nonc2N)nc2c(C#CC(C)(C)O)nc(O[C@@H](CN)c3ccccc3)cc21"
  MEASUREMENT_TARGET: "M07e"
  M07e %inh [%]: 123.2
- MOLECULE: "COc1cc2ncn(-c3cc(O[C@@H](C)c4ccccc4Cl)c(C(N)=O)s3)c2cc1OC"
  MEASUREMENT_TARGET: "M07e"
  M07e %inh [%]: 89.94
- MOLECULE: "c1ccc(Cc2nc3ccc(Nc4ncnc5ccccc45)cc3[nH]2)cc1"
  MEASUREMENT_TARGET: "M07e"
  M07e %inh [%]: 0.8889
- MOLECULE: "Cn1c(=O)c(Oc2ccc(F)cc2F)cc2cnc(NC(CO)CO)nc21"
  MEASUREMENT_TARGET: "M07e"
  M07e %inh [%]: 1.393

Quick check: M07e %inh on M07e, item COc1c(N2CCNC(C)C2)c(F)cc2c(=O)c(C(=O)O)cn(C3CC3)c12 (stereo not drawn) ?
0.9683

What measured M07e %inh is associated with COC(=O)Nc1nc2ccc(Oc3ccc(NC(=O)Nc4cc(C(F)(F)F)ccc4F)cc3)cc2s1 on M07e?
9.62

API: value(readout= M07e %inh, system= M07e, query= COc1ccccc1CN=C1NC(=O)/C(=C/c2ccc3ncccc3c2)S1 )
13.46

Query M07e %inh on M07e for CN(C)C(=O)Oc1ccc[n+](C)c1 [SJ000286222-6, PYRIDOSTIGMINE BROMIDE]
2.078

Notebook: pull reported M07e %inh for M07e, entry Clc1ccc(CNc2nccc(-c3cnn4ncccc34)n2)cc1
7.216
